System: Plasmodium falciparum
Method: Antimalarial activity against Plasmodium falciparum
Format: functional, organism-based
pEC50: −log10 of the molar value.
Cut-off 8 on pEC50, inclusive. At or above means met; below means not met.

| Compound | Category |
| --- | --- |
| C[C@@H]1CC[C@H]2[C@@H](Cc3cccc(F)c3)C(=O)O[C@@H]3O[C@]4(C)CC[C@@H]1[C@]32OO4 | not met |
| C[C@@H]1CC[C@H]2C(CCC(=O)c3ccc[nH]3)C(=O)O[C@@H]3O[C@]4(C)CC[C@@H]1[C@]32OO4 (stereo partly specified) | not met |
| CC1CCC2C(CC3(CCCCCCC4(CC5C(=O)OC6OC7(C)CCC8C(C)CCC5C68OO7)C(=O)OC5OC6(C)CCC7C(C)CCC4C57OO6)C(=O)OC4OC5(C)CCC6C(C)CCC3C46OO5)C(=O)OC3OC4(C)CCC1C32OO4 (stereo unspecified) | met |

Task item: Test whether the compound CC1CCC2C(CC3(Cc4cccc(F)c4)C(=O)OC4OC5(C)CCC6C(C)CCC3C46OO5)C(=O)OC3OC4(C)CCC1C32OO4 (stereo unspecified) records pEC50 of 8 or higher.
Reply: met
